# credit: PubChem BioAssay AID179

# pIC50 listing for each entry below
System: CEM cells HIV-1 protection, formazan growth assay
measurement description: NCI AIDS Antiviral Assay
assay conditions: measured here: growth of uninfected CEM cells
Give only the number. pIC50 is defined as minus log10 of concentration in molar units.

For orientation, consider the following solved cases.
{"columns": ["chemical string", "value"],
 "data": [
  ["CCn1c(O)c(C=Nc2ccccc2)s/c1=N/Nc1nc(C)cs1", 3.76],
  ["Nc1ccc(/C=C/c2ccc(N=Nc3ccc(/C=C/c4ccc(N=Nc5ccc(/C=C/c6ccc(N=Nc7ccc(/C=C/c8ccc(N)cc8S(=O)(=O)O)c(S(=O)(=O)O)c7)cc6S(=O)(=O)O)c(S(=O)(=O)O)c5)cc4S(=O)(=O)O)c(S(=O)(=O)O)c3)cc2S(=O)(=O)O)c(S(=O)(=O)O)c1", 3.73],
  ["COc1ccc2cc1Oc1ccc(cc1)C[C@H]1c3cc(c(OC)cc3CCN1C)Oc1c(OC)c(OC)cc3c1[C@H](C2)N(C)CC3", 4.91],
  ["CCN(CC)CCNc1ccc(CO)c2oc3cc(Cl)ccc3c(=O)c12", 5.34],
  ["COc1ccc(OC)c(C(Cc2ccnc3ccccc23)Cc2ccnc3ccccc23)c1", 4.58]
]}

We next turn to a different compound, shown below.
## Task Could you share which pIC50 value was measured for `CN1[C@H]2C=CC(=O)[C@]1(Cl)[C@H]1C(=O)N(c3ccccc3)C(=O)[C@@H]21` ?
## Result 5.41

---

Collected log10 of IC50 values appear next to each entry.
Tested on: CEM cells HIV-1 protection, formazan growth assay
measurement description: NCI AIDS Antiviral Assay
assay conditions: measured here: growth of uninfected CEM cells
Units before log transform: µM; reported quantity: IC50; transform: log10.

{"columns": ["compound", "log10 of IC50"],
 "data": [
  ["CN(C)CCCOc1ccc(/C=C2/CCC/C(=C/c3ccc(OCCCN(C)C)cc3)C2=O)cc1", 0.02],
  ["COC(=O)c1cnn2c1ccc1ccccc12", 1.47],
  ["CCOC(=O)c1ccc(-n2nc(C)cc(Cl)c2=O)cc1", 1.37],
  ["O=c1nc2ccc3[nH]c(O)c4ccc1c2c34", 2.25],
  ["CC(C)=CCc1c(O)cc(O)c2c1O[C@H](c1cc3c(cc1O)O[C@@H](c1ccc(O)cc1)C3c1cc(O)cc(O)c1)CC2=O (stereo not given in full)", 1.56]
]}

## Task Tell me the measured log10 of IC50 of `Clc1cc(Br)c2c3c(c(Br)cc(Cl)c13)C(Br)=C2Br` , please.
## Result 1.30

## Task Would you kindly share the measured log10 of IC50 for `Cc1ccc2cc([N+](=O)[O-])c3ccc(C)nc3c2n1.Cc1ccc2cc([N+](=O)[O-])c3ccc(C)nc3c2n1.O=C1OC(C(O)C[O-])C(O)=C1O.[Cu+]` ?
## Result 0.26

## Task Which measured log10 of IC50 value corresponds to `O=c1oc2ccccc2c(O)c1C(c1ccccc1)c1c(O)c2ccccc2oc1=O` ?
## Result 1.52

## Task // lookup log10 of IC50 for `CCCCC#COS(=O)(=O)c1ccc(C)cc1`
## Result 2.14

## Task Dear colleague, I am looking for the recorded log10 of IC50 of the following compound: `Cc1cc(Cl)c2c(c1)C(=N/O)/C(=C\c1ccco1)O2`
## Result 1.01

---

Test system: CEM cells HIV-1 protection, formazan growth assay
measurement description: NCI AIDS Antiviral Assay
The molecules listed here are annotated with their EC50.

{"columns": ["molecule", "readout", "value"],
 "data": [
  ["COc1cc(C2C(Cl)C(=O)N2NC(=O)c2ccc(NC(C)=O)cc2)cc(Br)c1O (stereo not given)", "EC50", "> 200 µM"],
  ["Cc1ccc(SSCCN)cc1", "EC50", "> 200 µM"],
  ["Nc1nc2sc3ccccc3c(=O)n2n1", "EC50", "> 91.2 µM"],
  ["CC1(c2ccc(Cl)cc2)OCC(CCl)O1 (stereo not given)", "EC50", "> 200 µM"],
  ["C[C@@H](CCO)OC1OC(COC(=O)C(C)(C)C)C(OC(=O)C(C)(C)C)C(OC(=O)C(C)(C)C)C1OC(=O)C(C)(C)C (stereo not given in full)", "EC50", "> 200 µM"],
  ["COc1ccc(C2c3c(-c4ccccc4)nn(-c4ccccc4)c3Oc3ncn(N)c(=N)c32)cc1OC (stereo not given)", "EC50", "> 200 µM"],
  ["NCCCCC(=O)NC(CCCCNC(=O)OCc1ccccc1)C(=O)NCCCCC(=O)NC(CCCCNC(=O)OCc1ccccc1)C(=O)NCCCCC(=O)NC(CCCCNC(=O)OCc1ccccc1)C(=O)NCCCCC(=O)NC(CCCCNC(=O)OCc1ccccc1)C(=O)NCCCCC(=O)NC(CCCCNC(=O)OCc1ccccc1)C(=O)NCCCCC(=O)NC(CCCCNC(=O)OCc1ccccc1)C(=O)NCCCCC(=O)NC(CCCCNC(=O)OCc1ccccc1)C(=O)O (stereo not given)", "EC50", "> 7.08 µM"],
  ["O=C1c2ccccc2C(=O)c2sc(Nc3cccc(Cl)c3)nc21", "EC50", "> 5.89 µM"]
]}

## Task Give its EC50 value. Item: Cn1c2c(c3ccccc31)CCN=C2C1CCCOC1=O (stereo not given)
## Result > 200 µM

## Task Please look up its EC50: `CCOC(=O)Nn1c(C)nnc1-c1ccccc1`
## Result > 200 µM

## Task EC50 for `COC(=O)[C@@H]1C[C@@H]2c3ccccc3N(S(=O)(=O)c3ccccc3)[C@@H]2N1C(=O)OC` ?
## Result > 200 µM

## Task Quick check: EC50 of `COc1ccc2c(c1)OCc1c-2oc2ccccc2c1=O` ?
## Result > 100 µM

## Task Any idea what EC50 was measured for `C=CCn1c(N)c(N=O)c(=O)n(CC)c1=O` ?
## Result > 200 µM

## Task State the recorded EC50 for this entry: `Cc1cc(=O)c2c(O)c3c(O)cc(O)c4c5c(O)cc(O)c6c(O)c7c(=O)cc(C)c8c1c2c(c34)c(c65)c78`
## Result > 100 µM

## Task Look up EC50: `O=c1c2ccccc2n2c(=S)[nH]nc2n1-c1ccccc1`
## Result > 200 µM

## Task Give the measured EC50 of `O=C1CCc2ccccc2O1` .
## Result > 1700 µM

## Task Query: EC50; subject: `COc1c(C)c(O)c2c(=O)cc(-c3ccccc3)oc2c1C`
## Result > 63.1 µM

---

System: CEM cells HIV-1 protection, formazan growth assay
measurement description: NCI AIDS Antiviral Assay
Here the recorded EC50 is given for each entry.

Solved entries (count: 4):
{"columns": ["molecule", "value"],
 "data": [
  ["COC(NC(=O)Nc1ccc(C)cc1)(C(F)(F)F)C(F)(F)F", "> 200 µM"],
  ["O/N=C1/CCCc2nonc21", "> 200 µM"],
  ["Cc1nnc2n1-c1ccc(Cl)cc1C(c1ccccc1)=[N+]([O-])C2", "> 398 µM"],
  ["O=C1C=CC(=O)N1Nc1ccc([N+](=O)[O-])cc1[N+](=O)[O-]", "> 200 µM"]
]}

## Task Which EC50 reading was recorded for the molecule COC1/C=C/OC2(C)Oc3c(C)c(O)c4c(O)c(c(C=NN5C(C)CC(Cc6ccccc6)CC5C)c(O)c4c3C2=O)NC(=O)/C(C)=C/C=C/C(C)C(O)C(C)C(O)C(C)C(OC(C)=O)C1C (stereo unspecified) ?
## Result > 200 µM

---

pIC50 reference
Tested on: CEM cells HIV-1 protection, formazan growth assay
measurement description: NCI AIDS Antiviral Assay
assay conditions: measured here: growth of uninfected CEM cells
Friendly reminder that pIC50 comes from taking -log10 of the concentration in mol/L.

{"columns": ["molecule", "value"],
 "data": [
  ["CC1C(c2ccccc2)OCN1CC=C(c1ccsc1)c1ccsc1 (stereo unspecified)", 4.82],
  ["CC(C)(CCCCC(C)(C)NC1=NCCO1)NC1=NCCO1", 4.11]
]}

## Task Endpoint output: pIC50 of `Cc1ccc(-c2nnc(CCCCCCCCc3nnc(-c4ccc(C)cc4O)n3N)n2N)c(O)c1` . Value?
## Result 3.92

## Task Reported pIC50 for `O=C(N/N=C\C(F)(F)F)c1ccncc1` : what is it?
## Result 5.45

## Task Please report the recorded pIC50 for `CC(=O)/C(N=Nc1ccc(-n2c(C)nc3ccc(Br)cc3c2=O)cc1)=C(/C)O` .
## Result 3.83

---

Tested on: CEM cells HIV-1 protection, formazan growth assay
measurement description: NCI AIDS Antiviral Assay
assay conditions: measured here: growth of uninfected CEM cells
Recorded pIC50 for the following compounds
Please report pIC50 as the negative decimal logarithm of the molar concentration, giving only the number.

# example entries with known answers
{"columns": ["compound", "pIC50"],
 "data": [
  ["O=C1OC(OC/C(Br)=C(/Br)COC2OC(=O)C(Cl)=C2Cl)C(Cl)=C1Cl (stereo not drawn)", 5.46],
  ["N#CCCN(CCC#N)c1ccc(C(=O)NN)cc1", 3.54],
  ["COc1ccc(C2c3cc4c(cc3OC(N3CCOCC3)C2C)OCO4)c(OC)c1OC (stereo not drawn)", 5.02],
  ["O=C(OCC(Cl)(Cl)Cl)N1CC[C@@H](C2CCCCC2)C1", 4.28],
  ["Cc1c(C)c2ccc(OCC(O)COC(C)C)c(C)c2oc1=O (stereo not drawn)", 4.49],
  ["CCN(CC)CCn1c(C)nc2c1C(=O)c1nc(C)n(CCN(CC)CC)c1C2=O", 5.24],
  ["CSCCCNC(=O)c1csc(-c2csc(CCNC(=O)CNC(=O)CNC(=O)OC(C)(C)C)n2)n1", 3.67],
  ["CN(C)c1ccc(/C=C(\\C#N)c2ccc(Cl)cc2)c(Cl)c1", 5.31]
]}

## Task Give the measured pIC50 of CC(C)(C)C(=O)OCOP(=O)(OCOC(=O)C(C)(C)C)OCC1OC(n2cc(F)c(=O)[nH]c2=O)CC1O (stereo not drawn) .
## Result 5.68

## Task Value lookup for pIC50; key = `CN(C)/C=C/c1ccncc1`
## Result 3.84

## Task I would be grateful if you could share the reported pIC50 for `O=C(OCCN=C1c2ccccc2CCc2ccccc21)c1cc([N+](=O)[O-])cc([N+](=O)[O-])c1` .
## Result 4.15

## Task What does the data say about its pIC50? Entry: Cc1nn(C(=O)Cc2ccccc2)c2c1C(c1ccccc1[N+](=O)[O-])SC(N)=N2 (stereo not drawn)
## Result 4.06
